Where do these numbers come from? They come from PubChem BioAssay AID1963968.

For each record, write down the corresponding viability, T/C.
# Test system: 945468-187-T-J3-PDC spheroids with HUVEC/MSC, viability
# Method: Anticancer human tumor 945468-187-T-J3-PDC patient-derived rectal carcinoma cell line growth inhibition [PI3K]
# Condition Description: second compound 0.316 µM; first compound 0.1 µM; stronger effect = lower value
Numbers only, in %.

Look over these answered cases.
INSERT INTO assay_data (molecule, result_unit, measured_value) VALUES
  ('CNC(=O)c1ccc(N2C(=S)N(c3ccc(C#N)c(C(F)(F)F)c3)C(=O)C2(C)C)cc1F + COc1c(OCCCN2CCOCC2)ccc2c3n(c(=NC(=O)c4cnc(N)nc4)nc12)CCN3', '%', 26.6),
  ('Cn1ncc(Cl)c1-c1cc(C(=O)NC(CN)Cc2cccc(F)c2)sc1Cl (stereo unspecified) + CC(Nc1ncnc2nc[nH]c12)c1cc2cccc(Cl)c2c(=O)n1-c1ccccc1', '%', 97.3),
  ('CC(C)NCC(C(=O)N1CCN(c2ncnc3c2C(C)CC3O)CC1)c1ccc(Cl)cc1 (stereo unspecified) + CC(Nc1ncnc2nc[nH]c12)c1cc2cccc(Cl)c2c(=O)n1-c1ccccc1', '%', 93.2),
  ('CNC(=O)c1ccc(N2C(=S)N(c3ccc(C#N)c(C(F)(F)F)c3)C(=O)C2(C)C)cc1F + Cc1nc(NC(=O)N2CCCC2C(N)=O)sc1-c1ccnc(C(C)(C)C(F)(F)F)c1', '%', 108),
  ('Cn1nccc1Nc1nccc(-c2ccn(C(CO)c3ccc(Cl)c(F)c3)c(=O)c2)n1 (stereo unspecified) + CC(Nc1ncnc2nc[nH]c12)c1cc2cccc(Cl)c2c(=O)n1-c1ccccc1', '%', 107);

# input for lookup
Query: Query viability, T/C on 945468-187-T-J3-PDC spheroids with HUVEC/MSC, viability for CC(C)n1nc(-c2ccc3oc(N)nc3c2)c2c(N)ncnc21 + CC(Nc1ccc2c(c1)OCCn1cc(N3C(=O)OCC3C(F)F)nc1-2)C(N)=O
Result: 24.9

====

# Test system: 945468-187-T-J3-PDC spheroids with HUVEC/MSC, viability
# Method: Anticancer human tumor 945468-187-T-J3-PDC cell line growth inhibition [PI3K];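 also: spheroids exposed to agents for 7 days before viability read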
# Condition Description: curve of first compound; second compound 1 µM
# Description: Combinatorial screen of targeted agents with the PI3K inhibitors inavolisib, alpelisib, duvelisib, and copanlisib in multi-cell type tumor spheroids A high-throughput screen of multi-cell type tumor spheroids was designed to identify active combinations of targeted small molecules and PI3K pathway inhibitors. […] Compounds. […] If the clinical Cmax for an agent had not been determined, the highest concentration tested was 10 microM. […]
pIC50: −log10 of the molar value.
Answer each item with its documented pIC50.

Known results for molecules:
INSERT INTO measurements (molecule, measured_value) VALUES
  ('CC1(C)CCC(CN2CCN(c3ccc(C(=O)NS(=O)(=O)c4ccc(NCC5CCOCC5)c([N+](=O)[O-])c4)c(Oc4cnc5[nH]ccc5c4)c3)CC2)=C(c2ccc(Cl)cc2)C1 + CC(Nc1ncnc2nc[nH]c12)c1cc2cccc(Cl)c2c(=O)n1-c1ccccc1', '< 5.00'),
  ('Cn1ncc(Cl)c1-c1cc(C(=O)NC(CN)Cc2cccc(F)c2)sc1Cl (stereo unspecified) + COc1c(OCCCN2CCOCC2)ccc2c3n(c(=NC(=O)c4cnc(N)nc4)nc12)CCN3', '> 7.50'),
  ('CNC(=O)c1ccc(N2C(=S)N(c3ccc(C#N)c(C(F)(F)F)c3)C(=O)C2(C)C)cc1F + COc1c(OCCCN2CCOCC2)ccc2c3n(c(=NC(=O)c4cnc(N)nc4)nc12)CCN3', '> 7.50'),
  ('C[C@@H](NC(=O)c1ncnc(N)c1Cl)c1ncc(C(=O)Nc2cc(C(F)(F)F)c(Cl)cn2)s1 + COc1c(OCCCN2CCOCC2)ccc2c3n(c(=NC(=O)c4cnc(N)nc4)nc12)CCN3', '> 7.50');

Fill in pIC50 for each of the 2 molecules listed.
1. CC(Cn1ccc(-c2ccc(C#N)c(Cl)c2)n1)NC(=O)c1cc(C(C)O)[nH]n1 (stereo unspecified) + CC(Nc1ncnc2nc[nH]c12)c1cc2cccc(Cl)c2c(=O)n1-c1ccccc1
2. CC(=O)c1c(C)c2cnc(Nc3ccc(N4CCNCC4)cn3)nc2n(C2CCCC2)c1=O + Cc1nc(NC(=O)N2CCCC2C(N)=O)sc1-c1ccnc(C(C)(C)C(F)(F)F)c1

Result:
["< 5.00", "< 7.00"]
